Consider the following compounds; for each one, report its IC50.
biological target: human recombinant FKBP12 (Homo sapiens); assay: Test 1: immunophilin FKBP12 rotamase (peptidylprolyl isomerase) inhibiting activity; settings: 12 nM human recombinant FKBP12, substrate succinyl-Ala-Phe-Pro-Phe-paranitroanilide 48 μM, 4° C.; read-out: PKBP12 rotamase inhibiting activity IC50
Sequence (P62942 whole entry): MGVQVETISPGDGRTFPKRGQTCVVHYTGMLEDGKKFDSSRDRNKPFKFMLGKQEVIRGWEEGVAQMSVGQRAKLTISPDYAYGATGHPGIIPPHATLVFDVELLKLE
One number for each entry, in nM.

# annotated cases, reported IC50 shown
COc1ccc(Oc2nnc([C@@H]3CCCN3C(=O)C(F)(F)C3(O)CC(C)(C)CC(C)(C)C3)o2)cc1OC [Compound 28]: 351
COc1ccc(CC(=O)NCc2cc([C@@H]3CCCN3C(=O)C(F)(F)C3(O)CC(C)(C)CC(C)(C)C3)no2)cc1OC [Compound 51]: 74
CC1(C)CC(C)(C)CC(O)(C(F)(F)C(=O)N2CCC[C@H]2c2cc(Cn3ccc(=O)nc3)on2)C1 [Compound 61]: 152

Take each entry in turn and give its IC50.
1. CC1(C)CC(C)(C)CC(O)(C(F)(F)C(=O)N2CCC[C@H]2c2cc(COc3ncccn3)on2)C1 [Compound 58]
2. COc1cc(OCc2nnc([C@@H]3CCCN3C(=O)C(F)(F)C3(O)CC(C)(C)CC(C)(C)C3)o2)cc(OC)c1OC [Compound 20]
3. COc1ccc(OCc2nnc([C@@H]3CCCN3C(=O)C(F)(F)C3(O)CC(C)(C)CC(C)(C)C3)o2)c(OC)c1 [Compound 30]

A.
[250, 276, 220]
